Collected T/C values appear next to each entry.
- Tested on: P388 leukemia ip, CD2F1 mice, survival T/C
- Assay summary: NCI In Vivo Anticancer Drug Screen. Data for tumor model P388 Leukemia (intraperitoneal) in CD2F1 (CDF1) mice
- Measurement context: endpoint: median survival time; dose: 25.0 mg/kg/injection; schedule: Q01DX009 (ip); vehicle: Klucel (hydroxypropylcellulose) (HPC); higher = longer survival
Toxic doses and inconclusive results are not listed.

| Compound | Tgt | T/C |
| --- | --- | --- |
| O=S(=O)(NCc1ccccc1)c1ccccc1 | P388 leukemia ip, CD2F1 mice, survival T/C | 94 % of control |
| CSc1nc(-c2ccccc2)cc(=O)[nH]1 | P388 leukemia ip, CD2F1 mice, survival T/C | 106 % of control |
| CC(Br)(C(Br)c1ccccc1)[N+](=O)[O-] (centres undefined) | P388 leukemia ip, CD2F1 mice, survival T/C | 110 % of control |
| CC1(C)C2CCC1(C)C(OC(=O)/C=C/c1ccc(O)c(O)c1)C2 (centres undefined) | P388 leukemia ip, CD2F1 mice, survival T/C | 98 % of control |

###

- Tested on: P388 leukemia ip, CD2F1 mice, survival T/C
- Assay summary: NCI In Vivo Anticancer Drug Screen. Data for tumor model P388 Leukemia (intraperitoneal) in CD2F1 (CDF1) mice
- Measurement context: endpoint: median survival time; dose: 50.0 mg/kg/injection; schedule: Q01DX009 (ip); vehicle: Klucel (hydroxypropylcellulose) (HPC); higher = longer survival
Toxic doses and inconclusive results are not listed.
Collected T/C values appear next to each entry.
Quantity: T/C

| Molecule | Result value |
| --- | --- |
| COc1cc2c(cc1O)CCCCC2O (configuration not stated) | 94 % of control |
| COc1cc2oc3c(c(=O)c2c(O)c1/C=C/C(C)C)C(C=C(C)C)Oc1cc(O)ccc1-3 (configuration not stated) | 124 % of control |
| CSc1nc(C(N)=O)c(N)c(=O)[nH]1 | 109 % of control |
| O=c1[nH]c(=O)n(-c2cccc3ccccc23)c(=O)n1-c1cccc2ccccc12 | 100 % of control |
| CC1C(c2ccccc2)OCCN1C(=S)NC(=O)c1ccccc1 (configuration not stated) | 101 % of control |
| NS(=O)(=O)c1ccc(NC(=O)Nc2c(Cl)cccc2Cl)cc1 | 96 % of control |
| CC(=O)NC1C(OC(C)=O)OC(C[Se][As](C)C)C(OC(C)=O)C1OC(C)=O (configuration not stated) | 105 % of control |

###

- System: P388 leukemia ip, CD2F1 mice, survival T/C
- Assay summary: NCI In Vivo Anticancer Drug Screen. Data for tumor model P388 Leukemia (intraperitoneal) in CD2F1 (CDF1) mice
- Measurement context: endpoint: median survival time; dose: 30.0 mg/kg/injection; schedule: Q01DX005 (ip); vehicle: saline; higher = longer survival
Inconclusive results and toxic doses are left out.
Quantity: T/C

| Molecule | Tgt | Result value |
| --- | --- | --- |
| CN1CCN(C(=O)/C=C/C(=O)c2ccccc2)CC1 | P388 leukemia ip, CD2F1 mice, survival T/C | 108 % of control |
| NC(N)=N/N=C\c1ccnc2ccccc12 | P388 leukemia ip, CD2F1 mice, survival T/C | 105 % of control |
| CC1CC(C)(C)C2=NCCN21 (stereo not drawn) | P388 leukemia ip, CD2F1 mice, survival T/C | 106 % of control |

###

- System: P388 leukemia ip, CD2F1 mice, survival T/C
- Assay summary: NCI In Vivo Anticancer Drug Screen. Data for tumor model P388 Leukemia (intraperitoneal) in CD2F1 (CDF1) mice
- Measurement context: endpoint: median survival time; dose: 50.0 mg/kg/injection; schedule: Q01DX009 (ip); vehicle: saline with Tween-80; higher = longer survival
Toxic doses and inconclusive results are not listed.
Collected T/C values appear next to each entry.

| Compound | T/C |
| --- | --- |
| CCN(CC)CC(=O)Nc1ccc2c(c1)C(=O)c1cc(NC(=O)CN(CC)CC)ccc1-2 | 86 % of control |
| NC(=S)N/N=C/c1ccc(OC(=O)COc2ccccc2)cn1 | 205 % of control |
| CCn1c2ccccc2c2cc(N=Nc3ccc4c(c3)c3ccccc3n4CC)ccc21 | 105 % of control |
| O=C1OC(C(Cl)(Cl)Cl)NC1Cc1ccccc1 (centres undefined) | 107 % of control |
| Clc1ccc(-n2nnc3cc(Cl)ccc32)c(Cl)c1 | 97 % of control |
| Cc1ccc(Cl)c2ccccc12 | 113 % of control |
| CCCCN(CCCC)c1nsc(N2CCOCC2)n1 | 94 % of control |
| Nc1nc(N)c(N=Nc2ccccc2)c(=O)[nH]1 | 100 % of control |
| COc1cccc2c1OC1(N3CCOCC3)CCCCC1C2C[N+](=O)[O-] (centres undefined) | 90 % of control |
| Oc1c(C(c2ccccc2)N2CCCCC2)ccc2ccccc12 (centres undefined) | 110 % of control |
| O=c1[nH][nH]c2c1SCc1ccccc1-2 | 110 % of control |
| CC(=O)Oc1c(Cl)c(Cl)c(C#N)c(Cl)c1C#N | 105 % of control |
| O=C(O)CN(CCO)CCN(CC(=O)O)CC(=O)O | 95 % of control |
| CCCCCCCCCCCCCCCCCCCCCCCCCCCCCCO | 101 % of control |
| CCN1C(=O)Nc2ccc(Cl)cc2C1(O)c1ccccc1 (centres undefined) | 102 % of control |
| O=C(O)c1c[nH]c2cc(OCc3ccc(Cl)c(Cl)c3)ccc2c1=O | 94 % of control |
| O=C1COC(c2ccccc2O)=NN1Cc1ccccc1 | 94 % of control |
| CSCCC1NC(=O)C(C(C)=Nc2ccccc2)=C1O (centres undefined) | 94 % of control |
| CCC(=O)C(=O)c1ccc(O)c(C)c1O | 100 % of control |

###

- System: P388 leukemia ip, CD2F1 mice, survival T/C
- Assay summary: NCI In Vivo Anticancer Drug Screen. Data for tumor model P388 Leukemia (intraperitoneal) in CD2F1 (CDF1) mice
- Measurement context: endpoint: median survival time; dose: 100.0 mg/kg/injection; schedule: Q01DX005 (ip); vehicle: saline; higher = longer survival
- Experimental: The antitumor activity of compounds was measured in mice bearing transplantable tumors. Survival or tumor size were measured and the results are expressed as the measurement made in the treated group (T) divided by the measurement made in the vehicle treated control group (C). The tumor model used in this assay is P388 Leukemia (intraperitoneal) in CD2F1 (CDF1) mice
Toxic doses and inconclusive results are not listed.
Quantity: T/C

| Molecule | Quantity | Result value |
| --- | --- | --- |
| COC(=O)C(C)CP(=O)(OC)OC (centres undefined) | T/C | 97 % of control |
| O=C1NC(=O)C2(CCC(O)C2)c2cc[n+]([O-])cc21 (centres undefined) | T/C | 100 % of control |
| CN(C)CCCN1CCC2(CCCCC2)CC1 | T/C | 98 % of control |
| Cn1nc(C(=O)O)c(=O)[nH]c1=O | T/C | 95 % of control |

###

Collected T/C values appear next to each entry.
- Tested on: P388 leukemia ip, CD2F1 mice, survival T/C
- Assay summary: NCI In Vivo Anticancer Drug Screen. Data for tumor model P388 Leukemia (intraperitoneal) in CD2F1 (CDF1) mice
- Measurement context: endpoint: median survival time; dose: 60.0 mg/kg/injection; schedule: Q01DX005 (ip); vehicle: Klucel (hydroxypropylcellulose) (HPC); higher = longer survival
Inconclusive results and toxic doses are left out.

| Molecule | Tgt | T/C |
| --- | --- | --- |
| O=[N+]([O-])c1ccc(-c2noc(-c3cccs3)n2)cc1 | P388 leukemia ip, CD2F1 mice, survival T/C | 95 % of control |
| CC1=C(C(N)=O)C(c2ccc([N+](=O)[O-])cc2)NC(=S)N1 (stereo not drawn) | P388 leukemia ip, CD2F1 mice, survival T/C | 92 % of control |
| O=C(Nc1cccc(C(F)(F)F)c1)c1cc2cc(Br)ccc2oc1=O | P388 leukemia ip, CD2F1 mice, survival T/C | 102 % of control |
| COC(=O)C1(C(=O)OC)OC(c2ccc(OC)cc2)[C@H]2C(=O)N(C)C(=O)[C@H]21 (stereo partly drawn) | P388 leukemia ip, CD2F1 mice, survival T/C | 92 % of control |
| C=C1N=NN(c2ccc(C)cc2)C1N1CCOCC1 (stereo not drawn) | P388 leukemia ip, CD2F1 mice, survival T/C | 93 % of control |
| C=C1C2(O)CCC(C2)C1(C)C (stereo not drawn) | P388 leukemia ip, CD2F1 mice, survival T/C | 108 % of control |
| CC(O)CCC(=O)c1nc2ccccc2s1 (stereo not drawn) | P388 leukemia ip, CD2F1 mice, survival T/C | 95 % of control |
| COc1ccc(C2=NC(=O)OC2(C)C)cc1 | P388 leukemia ip, CD2F1 mice, survival T/C | 110 % of control |
| O=C1C2=C(Nc3cc(Cl)ccc3N2)OC1c1ccc2c(c1)OCO2 (stereo not drawn) | P388 leukemia ip, CD2F1 mice, survival T/C | 101 % of control |
| COC(=O)c1nc(=S)[nH]c(C(=O)OC)c1C(=O)c1ccc([N+](=O)[O-])cc1 | P388 leukemia ip, CD2F1 mice, survival T/C | 101 % of control |
| CN1/C(=C/C2=C([O-])C(=C/C3=[N+](C)c4ccccc4C3(C)C)/C2=O)C(C)(C)c2ccccc21 | P388 leukemia ip, CD2F1 mice, survival T/C | 91 % of control |
| C1=Cc2cc(CN3CCOCC3)ccc2Nc2ccc(CN3CCOCC3)cc21 | P388 leukemia ip, CD2F1 mice, survival T/C | 96 % of control |
| CC(C)(C)[Si](C)(C)O[C@H]1C=C(S(=O)(=O)c2ccccc2)[C@H](O)C1 | P388 leukemia ip, CD2F1 mice, survival T/C | 100 % of control |
